Tested on: IL-2
PROTOCOL_NOTES: PHA-IL2 (cell activation and cytokine analysis)
Format: cell-based
EXPERIMENTAL_CONDITIONS: 50% inhibition concentration class
RESULT_TYPE: IC50

>>> result("COc1ccccc1-c1ccccc1OCC(=O)N1CCC(CCc2ccc3c(c2)OCO3)CC1 [Compound 180]")
"1000 to 10000 nM"
>>> result("O=C(COc1ncccc1-c1ccc(F)cc1O)N1CCC(CCc2ccc3c(c2)OCO3)CC1 [Compound 329]")
"10000 to 50000 nM"
>>> result("O=C(COc1ccccc1-c1ccccc1)N1CCC(CCc2ccc3c(c2)OCO3)CC1 [Compound 105]")
"< 1000 nM"
>>> result("CC1Oc2ccc(CCC3CCN(C(=O)COc4ccccc4-c4ccc(Cl)nc4)CC3)cc2OC1C (centres unmarked) [Compound 265]")
"< 1000 nM"
>>> result("CCCOc1ccc(CCC2CCN(C(=O)COc3ccccc3-c3ccc(C#N)cc3)CC2)cc1OCCC [Compound 300]")
"< 1000 nM"
>>> result("CC(C)Oc1cccc(CCC2CCN(C(=O)COc3ccc(C#N)cc3-c3ccccc3O)CC2)c1 [Compound 414]")
"< 1000 nM"
>>> result("O=C(COc1ccccc1-c1ccccc1)N1CCC(CCCc2ccccc2)CC1 [Compound 261]")
"1000 to 10000 nM"
>>> result("O=C(COc1ccccc1-c1ccccc1O)N1CCC(CCc2ccc(O)cc2)CC1 [Compound 282]")
"< 1000 nM"
